Hello, the source for this data is the supplement of paper PMC9732359, in case you need it.

assay.explanation: protein stability index of a GFP-peptide fusion (yeast GPS) (PSI 1-4); higher = more stable; sorted into four equal gates, so the index is relative within each strain
assay.context: pdr5∆
Entries and their protein stability index values follow.
value.kind: protein stability index

>>> observed_result("IEINEDNSQDDQDRGAA [RRI2]")
3.28
>>> observed_result("RQKINGCEANIHSLVKQ [YIL149C/MLP2]")
3.33
>>> observed_result("EDMIDQVSKKLSSIEAS [SMC3]")
2.54
>>> observed_result("PLQSMDIEQLEYSRDCF [RPB3]")
3.17
>>> observed_result("AFGLGAIMSKSSLEELL [ECM29]")
2.07
>>> observed_result("KKLVWPLHLIFAQPVAD [SSN2]")
1.39
>>> observed_result("MSGSFWTSTQRHHWQYT [SSN8]")
2.27
>>> observed_result("KIPEREEKSNEVKTPKI [SIR4]")
3.24
>>> observed_result("FVNETPRVIEPVYTAQW [PRP8]")
2.31
>>> observed_result("PVGACATSVESVDIGVE [FAS2]")
2.9
>>> observed_result("DFSARTVISGDPNLELD [RPO21]")
2.79
>>> observed_result("SMFGSDQKTGRAKSSSH [RPN4]")
3.25
>>> observed_result("LDESSEQKNTAKEELNG [YIL149C/MLP2]")
2.95
>>> observed_result("LKPDLNKITNQGVTCLH [NAS6]")
2.05
>>> observed_result("KSSILTVLQKNSLLLDS [YML103C/NUP188]")
1.71
>>> observed_result("HHDYRSYYGIVCLMQIS [RRP6]")
1.67
>>> observed_result("ATGNESQDATKVDATPE [YLR335W/NUP2]")
3.22
>>> observed_result("KDDGAFVKFLSKKGSLE [RPL10]")
3.32
>>> observed_result("NATVVDSFKYEPLAPGN [YLR335W/NUP2]")
3.02
>>> observed_result("RVLQLLAVIMDNIGEID [YCG1]")
1.63
>>> observed_result("NFASGDNNTASNMLGSN [RPB3]")
2.98
>>> observed_result("SSLYEASLNALKESIKN [RPN1]")
3.1
>>> observed_result("ALENDVATNIVNEDPIF [YML103C/NUP188]")
3.1
>>> observed_result("VLQEYRLTKQAFDWVLS [RPO21]")
2.48
>>> observed_result("DLSMVPKMKDEEYDDDD [SNF2]")
3.22
>>> observed_result("SKQVTDYYQSIYAKYGA [FAS2]")
2.67
>>> observed_result("IVKFKQKEEGRSFTKAI [YLR335W/NUP2]")
3.09
>>> observed_result("QFYVKRWKRFTIGAIFL [CDC53]")
2.94
>>> observed_result("RLTMGNVFTPEISSQIE [RRI2]")
3.06
>>> observed_result("FSQFWYWFPLAHFLSLS [RPN2]")
1.32
>>> observed_result("LLEETQAKLKKNVETLE [SMC4]")
3.18
>>> observed_result("AIITDDLDTVLKKDIES [SRP72]")
2.32
>>> observed_result("ETSSDGSKSDGSAATSG [RPN1]")
3.4
>>> observed_result("MVLEATVLVIDNSEYSR [RPN10]")
1.72
>>> observed_result("VRVQFQFTGFLLHEMTQ [GRR1]")
2.08
>>> observed_result("GEITKTENEKFISYHDK [NUT1]")
3.35
>>> observed_result("KRLSAALSKFLTHPKYL [YML103C/NUP188]")
2.25
>>> observed_result("RSPEEIRRTFNIVNDFT [SKP1]")
2.06
>>> observed_result("LLVERLKEDDSSLYEAS [RPN1]")
3.38
>>> observed_result("PSLIQEEEEDTTTTANI [NUT1]")
3.12
>>> observed_result("PGIMLRQMNLVITLLNN [YCS4]")
1.11
>>> observed_result("EQLSPQDVLQMLGRAGR [BRR2]")
3.17
>>> observed_result("TSPSYSPTSPSYSPTSP [RPO21]")
3
>>> observed_result("ALILADSEIEISSEKLL [RPP1A]")
1.87
>>> observed_result("DLKSKADKLADMANEII [RRP6]")
3.17
>>> observed_result("LPPNWKYESATASALVN [RPS13]")
2.59
>>> observed_result("QVRKDLGNVIVPNILSL [NUT1]")
2.55
>>> observed_result("HKVQTKLTRELEKKFPD [RPS7B]")
3.07
>>> observed_result("FQTIFSKQDLIHSLIPV [SIN4]")
1.9
>>> observed_result("FKKLNSKNMSKSPSLTA [YMR153W/NUP53]")
2.38
>>> observed_result("NNPQVVNAITVAQQQVQ [SNF5]")
1.78
>>> observed_result("YLIDHIKVDGAVGNLGN [RPL22B]")
2.49
>>> observed_result("LDCDGGFIDASCIAVMA [RRP45]")
1.56
>>> observed_result("ILPQQSKLKLKNLLRKN [ECM29]")
1.79
>>> observed_result("TGKYGVRYGSSLRRQVK [RPL43A]")
3.23
>>> observed_result("LKKVQQQQQAAALANAN [SWI1]")
2.45
>>> observed_result("GYRSRTRYMFQRDFRKH [RPL21A]")
3.19
>>> observed_result("LNSLTNLLSKRNQEKKM [SNM1]")
2.86
>>> observed_result("KLLIQIDELSNGQRSNS [SMC1]")
2.59
>>> observed_result("AAGYGKILGKGRIPNVP [RPL28]")
3.2
